# System: human blood
# ASSAY PROTOCOL: In vitro anticoagulant effect on human blood (APTT, CT2)
# Type: biochemical
# RECORDED CONDITIONS: Table 2; concentration of the compound corresponding to 2 times the APTT of the blank control; human plasma
Reported values of CT2 (compound concentration doubling APTT) for individual entries
MEASURED PARAMETER: CT2 (compound concentration doubling APTT) (µM)

>>> assay_value("COc1cn([C@@H](Cc2ccccc2)C(=O)Nc2ccc(C(=O)O)cc2)c(=O)cc1-c1c(C(C)=O)ccc(Cl)c1F")
8.5
>>> assay_value("COc1cn([C@@H](Cc2ccccc2)C(=O)Nc2ccc3nn(C)cc3c2)c(=O)cc1-c1cc(Cl)ccc1C(C)=O")
6.5

====

# Tested on: human blood
# ASSAY PROTOCOL: In vitro anticoagulant effect on human blood (APTT, CT2)
# Assay type: biochemical
# RECORDED CONDITIONS: Table 2; concentration of the compound corresponding to 2 times the APTT of the blank control; human plasma
MEASURED PARAMETER: CT2 (compound concentration doubling APTT) (µM)

>>> assay_value("CCC(=O)c1ccc(Cl)cc1-c1cc(=O)n(C(Cc2ccccc2)C(=O)Nc2ccc(C(=O)O)cc2)cc1OC (stereo not shown)")
6.4
>>> assay_value("COc1cn([C@@H](Cc2ccccc2)C(=O)Nc2ccc(C(=O)O)cc2)c(=O)cc1-c1cc(Cl)ccc1C(C)=O")
2.0
>>> assay_value("COc1cn([C@@H](CCOC(C)(C)C)C(=O)Nc2ccc(C(=O)O)cc2)c(=O)cc1-c1cc(Cl)ccc1C(C)=O")
3.2
>>> assay_value("CCC(=O)c1ccc(Cl)cc1-c1cc(=O)n([C@@H](Cc2ccccc2)C(=O)Nc2ccc(C(=O)O)cc2)cc1OC")
2.4
>>> assay_value("COCCC(C(=O)Nc1ccc2[nH]c(C(=O)O)cc2c1)n1cc(OC)c(-c2cc(Cl)ccc2C(C)=O)cc1=O (stereo not shown)")
4.4
>>> assay_value("COc1cn([C@@H](Cc2ccn(C3CC3)n2)C(=O)Nc2ccc(C(=O)O)cc2)c(=O)cc1-c1cc(Cl)ccc1C(C)=O")
2.2

====

# Test system: human blood
# ASSAY PROTOCOL: In vitro anticoagulant effect on human blood (APTT, CT2)
# Format: biochemical
# RECORDED CONDITIONS: Table 2; concentration of the compound corresponding to 2 times the APTT of the blank control; human plasma
MEASURED PARAMETER: CT2 (compound concentration doubling APTT) (µM)

>>> assay_value("[2H]C([2H])([2H])Oc1cn([C@@H](Cc2ccccc2)C(=O)Nc2ccc(C(=O)O)cc2)c(=O)cc1-c1cc(Cl)ccc1C(C)=O")
3.3
>>> assay_value("COc1cn([C@@H](CCOC2CCC2)C(=O)Nc2ccc(C(=O)O)cc2)c(=O)cc1-c1cc(Cl)ccc1C(C)=O")
6.4
>>> assay_value("COc1cn([C@@H](Cc2cccc(C#N)c2)C(=O)Nc2ccc(C(=O)O)cc2)c(=O)cc1-c1cc(Cl)ccc1C(C)=O")
5.7
>>> assay_value("[2H]c1c([2H])c([2H])c(C([2H])([2H])[C@@H](C(=O)Nc2ccc(C(=O)O)cc2)n2cc(OC)c(-c3cc(Cl)ccc3C(C)=O)cc2=O)c([2H])c1[2H]")
2.3
>>> assay_value("COc1cn(C(Cc2ccn(C)n2)C(=O)Nc2ccc(C(=O)O)cc2)c(=O)cc1-c1cc(Cl)ccc1C(C)=O (stereo not drawn)")
3.3
>>> assay_value("CCNC(=O)c1ccc(NC(=O)[C@H](Cc2ccccc2)n2cc(OC)c(-c3cc(Cl)ccc3C(C)=O)cc2=O)cc1")
7.8
>>> assay_value("COc1cn([C@@H](Cc2ccccn2)C(=O)Nc2ccc(C(N)=O)cc2)c(=O)cc1-c1cc(Cl)ccc1C(C)=O")
6.5
>>> assay_value("CCC(=O)c1ccc(Cl)cc1-c1cc(=O)n(C(Cc2ccn(C3CC3)n2)C(=O)Nc2ccc(C(=O)O)cc2)cc1OC (stereo not drawn)")
2.1
